# Read-out: Monocyte Chemoattractant Protein-1 (MCP1), CCL2 (gene 6347)
# Run description: BSK_3C_MCP1: BioMAP Diversity Plus: 3C Assay for Monocyte Chemoattractant Protein-1 (MCP1) Biomarker Activity (AID 2283017)
# Experimental context: primary human endothelial cells (HUVEC); actives raise or lower the signal
The source made the active and inactive calls. How the source made its calls: active means hit-call score of the fitted dose curve at least 0.9, where 1 is the maximum; inactive means score below 0.9.
Choose the fitting class; nothing outside t for active, f for inactive is accepted.

Data request: Could you kindly confirm the outcome this assay logged for NC=O ?
Data returned: f

Data request: Could you kindly confirm the outcome this assay logged for CC1=C(C)S(=O)(=O)CCS1(=O)=O ?
Data returned: f

Data request: Could you kindly confirm the outcome this assay logged for CC(C)(O)c1ccc(CNC(=O)c2cccnc2Oc2ccc(F)cc2)cc1 ?
Data returned: f

Data request: Could you kindly confirm the outcome this assay logged for OCC(O)CO ?
Data returned: f

Data request: Could you kindly confirm the outcome this assay logged for C=CCCCCCCCCCCCC ?
Data returned: f

Data request: Could you kindly confirm the outcome this assay logged for CSc1ccc(Oc2ccc(S(N)(=O)=O)cc2CN(C)C)cc1C ?
Data returned: f

Data request: Could you kindly confirm the outcome this assay logged for S=c1[nH]c2ccccc2s1 ?
Data returned: f

Data request: Could you kindly confirm the outcome this assay logged for Oc1ccc(O)cc1 ?
Data returned: f

Data request: Could you kindly confirm the outcome this assay logged for O=C(O)c1[nH]n(-c2ccc(S(=O)(=O)O)cc2)c(=O)c1N=Nc1ccc(S(=O)(=O)O)cc1 ?
Data returned: f

Data request: Could you kindly confirm the outcome this assay logged for O=C1OC(c2ccc(O)cc2)(c2ccc(O)cc2)c2ccccc21 ?
Data returned: t

Data request: Could you kindly confirm the outcome this assay logged for O=C(Oc1ccccc1)c1cccc(C(=O)Oc2ccccc2)c1 ?
Data returned: f

Data request: Could you kindly confirm the outcome this assay logged for CCCCCCC(C=O)=Cc1ccccc1 ?
Data returned: t

Data request: Could you kindly confirm the outcome this assay logged for O=Cc1ccccc1C=O ?
Data returned: f

Data request: Could you kindly confirm the outcome this assay logged for Oc1ccccc1O ?
Data returned: t

Data request: Could you kindly confirm the outcome this assay logged for O=C1CCCCC1 ?
Data returned: f

Data request: Could you kindly confirm the outcome this assay logged for Cc1occc(=O)c1O ?
Data returned: f

Data request: Could you kindly confirm the outcome this assay logged for O=C(O)c1cccnc1 ?
Data returned: f

Data request: Could you kindly confirm the outcome this assay logged for Cc1cc(Cc2ccc(N)c(C)c2)ccc1N ?
Data returned: f

Data request: Could you kindly confirm the outcome this assay logged for O=C1NC(=O)C(c2ccccc2)(c2ccccc2)N1 ?
Data returned: f

Data request: Could you kindly confirm the outcome this assay logged for CCCCC(CC)COP(=O)(OCC(CC)CCCC)OCC(CC)CCCC (configuration not stated) ?
Data returned: t

Data request: Could you kindly confirm the outcome this assay logged for O=C(O)CC(O)(CC(=O)O)C(=O)O ?
Data returned: f

Data request: Could you kindly confirm the outcome this assay logged for CC(C)COC(=O)CCCCC(=O)OCC(C)C ?
Data returned: f

Data request: Could you kindly confirm the outcome this assay logged for C/C=C/C=C/C(=O)O ?
Data returned: f

Data request: Could you kindly confirm the outcome this assay logged for Cn1cnc2c1c(=O)[nH]c(=O)n2C ?
Data returned: f

Data request: Could you kindly confirm the outcome this assay logged for CC(=O)OCC(COC(C)=O)OC(C)=O ?
Data returned: f

Data request: Could you kindly confirm the outcome this assay logged for CCCCC(CC)CO (configuration not stated) ?
Data returned: f

Data request: Could you kindly confirm the outcome this assay logged for CN(C)CCCN(C)CCCN(C)C ?
Data returned: f
